assay-target: rat homomeric P2X3 receptors (Rattus norvegicus, UniProt P49654)
Construct: transfected with rat full-length P2X3 cDNA subcloned into pIRES2-EGFP; expressed in transfected cells; host or cells: HEK293T
Sequence (P49654 whole entry): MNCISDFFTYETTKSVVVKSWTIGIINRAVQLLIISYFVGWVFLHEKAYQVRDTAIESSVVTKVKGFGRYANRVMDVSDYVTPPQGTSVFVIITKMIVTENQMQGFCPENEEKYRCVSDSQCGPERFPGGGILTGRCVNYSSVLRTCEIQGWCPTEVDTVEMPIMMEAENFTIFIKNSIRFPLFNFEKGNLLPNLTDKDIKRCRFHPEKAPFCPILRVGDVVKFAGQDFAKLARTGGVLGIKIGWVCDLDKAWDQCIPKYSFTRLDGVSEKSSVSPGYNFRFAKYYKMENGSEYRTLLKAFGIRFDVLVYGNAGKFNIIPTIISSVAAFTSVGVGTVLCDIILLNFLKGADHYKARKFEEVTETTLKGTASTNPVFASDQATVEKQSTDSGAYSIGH
test-method-notes: Whole-cell patch clamp on HEK cells expressing rat homomeric P2X3 receptors
Type: cell-based

{"columns": ["molecule", "unit-descriptor", "IC50"],
 "data": [
  ["Nc1ncnc2c1ncn2[C@@H]1O[C@H](COP(=O)(O)OP(=O)(O)NP(=O)(O)OP(=O)(O)OC[C@H]2O[C@@H](n3cnc4c(N)ncnc43)C(O)C2O)C(O)C1O (stereo in doubt)", "nM", 200]
]}

###

Test system: male Wistar rats
test-method-notes: Formalin test (nociceptive behaviour, spontaneous jerking of injected paw)
Assay type: in vivo, rat
run-parameters: Rattus norvegicus; Table 1, concentration; read-out: IC50 First phase (acute pain)
Each record here notes measured IC50.

{"columns": ["molecule", "IC50"],
 "data": [
  ["Nc1ncnc2c1ncn2[C@@H](CO)O[C@@H](CO)COP(=O)(O)OP(=O)(O)CP(=O)(O)OP(=O)(O)OC[C@H](CO)O[C@H](CO)n1cnc2c(N)ncnc21", "~50 µM"],
  ["Nc1ncnc2c1ncn2[C@@H]1O[C@H](COP(=O)(O)OP(=O)(O)NP(=O)(O)OP(=O)(O)OC[C@H]2O[C@@H](n3cnc4c(N)ncnc43)C(O)C2O)C(O)C1O (stereo in doubt)", "> 100 µM"],
  ["Nc1nc2c(ncn2[C@@H]2O[C@H](COP(=O)(O)OP(=O)(O)CP(=O)(O)OP(=O)(O)OC[C@H]3O[C@@H](n4cnc5c(N)ncnc54)C(O)C3O)C(O)[C@@H]2O)c(=O)[nH]1 (stereo partly shown)", "> 100 µM"],
  ["Nc1ncnc2c1ncn2[C@@H]1O[C@H](COP(=O)(O)OP(=O)(O)CP(=O)(O)OP(=O)(O)OC[C@H]2O[C@@H](n3cnc4c(N)ncnc43)C(O)C2O)C(O)C1O (stereo in doubt)", "32 µM"]
]}

###

Tested on: male Wistar rats
test-method-notes: Formalin test (nociceptive behaviour, spontaneous jerking of injected paw)
Format: in vivo, rat
run-parameters: Table 2, estimated indicative dose for 70 kg human
endpoint: First phase (acute pain) Human (70 kg) nmol (nmol)

{"columns": ["molecule", "unit-descriptor", "numeric-readout"],
 "data": [
  ["Nc1ncnc2c1ncn2[C@@H](CO)O[C@@H](CO)COP(=O)(O)OP(=O)(O)CP(=O)(O)OP(=O)(O)OC[C@H](CO)O[C@H](CO)n1cnc2c(N)ncnc21", "nmol", 8750],
  ["Nc1ncnc2c1ncn2[C@@H]1O[C@H](COP(=O)(O)OP(=O)(O)CP(=O)(O)OP(=O)(O)OC[C@H]2O[C@@H](n3cnc4c(N)ncnc43)C(O)C2O)C(O)C1O (stereo in doubt)", "nmol", 5600],
  ["Nc1nc2c(ncn2[C@@H]2O[C@H](COP(=O)(O)OP(=O)(O)CP(=O)(O)OP(=O)(O)OC[C@H]3O[C@@H](n4cnc5c(N)ncnc54)C(O)C3O)C(O)[C@@H]2O)c(=O)[nH]1 (stereo partly shown)", "nmol", 17500],
  ["Nc1ncnc2c1ncn2[C@@H]1O[C@H](COP(=O)(O)OP(=O)(O)NP(=O)(O)OP(=O)(O)OC[C@H]2O[C@@H](n3cnc4c(N)ncnc43)C(O)C2O)C(O)C1O (stereo in doubt)", "nmol", 17500]
]}

Cited source for all entries: patent US20150119352A1
